Kindly state IC50 for each of the entries shown.
TARGET_SYSTEM: Full length KDM2B (Homo sapiens (Human), UniProt Q8NHM5)
Sequence (Q8NHM5 whole entry): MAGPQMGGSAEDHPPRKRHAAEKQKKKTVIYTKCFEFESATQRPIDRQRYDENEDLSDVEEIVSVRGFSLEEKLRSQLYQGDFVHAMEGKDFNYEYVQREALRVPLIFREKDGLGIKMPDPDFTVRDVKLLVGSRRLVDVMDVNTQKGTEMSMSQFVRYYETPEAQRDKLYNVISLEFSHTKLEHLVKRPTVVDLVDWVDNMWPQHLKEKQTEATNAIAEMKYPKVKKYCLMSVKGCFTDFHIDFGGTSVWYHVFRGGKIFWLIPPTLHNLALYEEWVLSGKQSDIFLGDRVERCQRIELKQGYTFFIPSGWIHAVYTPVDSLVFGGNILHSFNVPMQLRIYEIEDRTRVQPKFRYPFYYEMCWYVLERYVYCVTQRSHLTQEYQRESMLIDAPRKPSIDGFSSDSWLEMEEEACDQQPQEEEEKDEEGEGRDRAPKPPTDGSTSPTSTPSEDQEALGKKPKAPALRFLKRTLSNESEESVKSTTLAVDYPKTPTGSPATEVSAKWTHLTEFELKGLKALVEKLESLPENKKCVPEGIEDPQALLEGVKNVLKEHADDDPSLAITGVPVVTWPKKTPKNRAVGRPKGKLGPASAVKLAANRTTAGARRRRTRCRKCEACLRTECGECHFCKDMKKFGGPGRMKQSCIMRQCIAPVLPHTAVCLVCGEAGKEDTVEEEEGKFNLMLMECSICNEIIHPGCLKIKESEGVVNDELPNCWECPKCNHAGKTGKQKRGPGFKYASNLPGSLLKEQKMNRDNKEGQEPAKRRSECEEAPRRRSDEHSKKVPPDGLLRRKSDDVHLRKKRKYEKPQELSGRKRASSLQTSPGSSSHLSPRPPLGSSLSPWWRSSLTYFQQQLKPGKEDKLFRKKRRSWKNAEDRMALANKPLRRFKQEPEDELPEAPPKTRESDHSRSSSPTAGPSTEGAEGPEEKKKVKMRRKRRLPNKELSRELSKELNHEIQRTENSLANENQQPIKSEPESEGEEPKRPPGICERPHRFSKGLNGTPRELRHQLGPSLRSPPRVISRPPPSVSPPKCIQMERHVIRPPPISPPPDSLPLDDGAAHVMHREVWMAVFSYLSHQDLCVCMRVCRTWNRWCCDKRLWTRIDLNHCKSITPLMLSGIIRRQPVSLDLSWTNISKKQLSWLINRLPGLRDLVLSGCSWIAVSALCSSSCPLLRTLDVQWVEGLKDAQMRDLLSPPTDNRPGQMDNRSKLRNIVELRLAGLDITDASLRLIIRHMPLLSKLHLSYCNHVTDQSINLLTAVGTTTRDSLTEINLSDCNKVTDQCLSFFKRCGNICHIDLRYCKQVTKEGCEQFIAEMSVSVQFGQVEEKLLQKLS
One number for each entry, in µM.

Take a look at these entries with their results.
>>> assay_value("CC[C@@H]1CCN(C2CCC2)C[C@@H]1C(=O)c1ccc2c(CC#N)c(OC)ccc2c1 (stereo in doubt) [Example 183c]")
0.078
>>> assay_value("Cc1c(C#N)ccc2cc(C(=O)C3CCCN(CC4CC4)C3)ccc12 (stereo not shown) [Example 71]")
0.132
>>> assay_value("NCc1cc(C(=O)C2CCCN(CC3CC3)C2)cc2ccccc12 (stereo not shown) [Example 37]")
0.62
>>> assay_value("COc1ccc2cc(C(=O)[C@H]3CN(C4CCC4)CC[C@H]3C(C)C)ccc2c1CC#N (stereo in doubt) [Example 186b]")
0.00212

Would you mind giving IC50 for every compound in the list below?
1. O=C(c1cnc2ccccc2c1)C1CCCN(CC2CC2)C1 (stereo not shown) [Example 125]
2. CNC(=O)c1cc(C(=O)C2CCCN(C3CCCC3)C2)cc2ccccc12 (stereo not shown) [Example 41]
3. COc1ccc2cc(C(=O)[C@@H]3CCCN(C4CCC4)C3)ccc2c1CC#N (stereo in doubt) [Example 179b]
4. COc1ccc2cc(C(=O)C3CCCN(CC4CCC4)C3)ccc2c1 (stereo not shown) [Example 69]
5. Cc1c(C(=O)C2CCCN(CC3CC3)C2)ccc2ccccc12 (stereo not shown) [Example 115]
6. O=C(c1cc(F)c2ccccc2c1)C1CCCN(CC2CC2)C1 (stereo not shown) [Example 26]

[out]
1. 0.489
2. 0.7
3. 0.361
4. 0.15
5. 0.439
6. 0.551
